All figures here come from the supplement of paper PMC10567573.

# protein stability index per entry
B1: ATE1 (parent)
chain: DYFPSEDFYRCGYCKNESGSRSNG

Variants of: B1
test_description: protein stability index of a GFP-peptide fusion (GPS, HEK-293T) (PSI 1-6); higher = more stable;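 note: lentivirally expressed fusions sorted by FACS into six bins by GFP to DsRed ratio, PSI derived from sequencing read proportions per bin multiplied by bin number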
condition_context: c terminus: a fixed tail appended
parameter: protein stability index

1) DYFPPEDFYRCGYCKNESGSRSNG [S5P] | 2.32
2) DYFPSEDFYDCGYCKNESGSRSNG [R10D] | 2.31
3) DYFPSEDFYRCGYCKNESGSRYNG [S22Y] | 2.42
4) DYFPSEDFYFCGYCKNESGSRSNG [R10F] | 1.98
5) DYFPSWDFYRCGYCKNESGSRSNG [E6W] | 2.04
6) SYFPSEDFYRCGYCKNESGSRSNG [D1S] | 2.15
7) DYFPSEDFYRCGYCKNESGSRSTG [N23T] | 2.1
8) DYFPSEDFYRCGYCKNESGVRSNG [S20V] | 2.25
9) DYFPSEDFYRCGYCKNESGNRSNG [S20N] | 1.79
10) DYFPSEDFYRCGKCKNESGSRSNG [Y13K] | 3.5
11) DYFPSEDFYRCGYCKNESGSRMNG [S22M] | 3.37
12) DYFPSEDFYRCGYCTNESGSRSNG [K15T] | 1.85
13) DYWPSEDFYRCGYCKNESGSRSNG [F3W] | 2.85
14) DYFPSEDFYRCNYCKNESGSRSNG [G12N] | 2.69
15) DYFPSEDFYRCGYCKNESGSRDNG [S22D] | 2.6
16) DYFPSEDFYRCGYCKNESGSRSWG [N23W] | 2.6
17) DYAPSEDFYRCGYCKNESGSRSNG [F3A] | 2.45
18) DYFPSEDFYRCGYCKNESGSHSNG [R21H] | 2.19
19) DYFLSEDFYRCGYCKNESGSRSNG [P4L] | 2.53
20) DYFPSEDFYWCGYCKNESGSRSNG [R10W] | 2.33
21) DYFPSEDFHRCGYCKNESGSRSNG [Y9H] | 1.82
22) DGFPSEDFYRCGYCKNESGSRSNG [Y2G] | 2.56
23) DYFPSEDFYRCGYCKNESGSRFNG [S22F] | 1.58
24) DYFPSEDFYRCGYCKNESTSRSNG [G19T] | 2.04
25) DYFDSEDFYRCGYCKNESGSRSNG [P4D] | 2.07
26) DYFPIEDFYRCGYCKNESGSRSNG [S5I] | 1.88
27) DYFPSMDFYRCGYCKNESGSRSNG [E6M] | 2.38
28) DYFPHEDFYRCGYCKNESGSRSNG [S5H] | 1.98
29) DYFPSEDFYRCGYCKNESGSRTNG [S22T] | 1.82
30) DYFPSEDTYRCGYCKNESGSRSNG [F8T] | 2.63
31) DYFPSEHFYRCGYCKNESGSRSNG [D7H] | 1.76
32) DYFPSEQFYRCGYCKNESGSRSNG [D7Q] | 3.11
33) DYFPSEDFYRCGYCKLESGSRSNG [N16L] | 1.53
34) DYFPSEDYYRCGYCKNESGSRSNG [F8Y] | 1.93
35) DYTPSEDFYRCGYCKNESGSRSNG [F3T] | 2.45
36) DYFPSEDFYRCGYCKNESGSRSNT [G24T] | 2.35
37) IYFPSEDFYRCGYCKNESGSRSNG [D1I] | 1.23
38) DYFPSNDFYRCGYCKNESGSRSNG [E6N] | 1.68
39) DYFPSEDFFRCGYCKNESGSRSNG [Y9F] | 1.92
40) DYFPSEDFYRCGYCKNQSGSRSNG [E17Q] | 1.9
41) DYDPSEDFYRCGYCKNESGSRSNG [F3D] | 2.61
42) DYFPSEDFYRCGYCKNEFGSRSNG [S18F] | 3.12
43) DYCPSEDFYRCGYCKNESGSRSNG [F3C] | 1.49
44) DYFPSEDFYRCGYCYNESGSRSNG [K15Y] | 2.89
45) DYFPSEDFYRCGYCKNESGSDSNG [R21D] | 3.09
46) DYFPSEDFCRCGYCKNESGSRSNG [Y9C] | 3.12
47) DYFPSEDFYRCGYCKNESGSRING [S22I] | 2.54
48) DYFPSEDFYRCGRCKNESGSRSNG [Y13R] | 2.23
49) DYFPSEDFYRTGYCKNESGSRSNG [C11T] | 4.55
50) DYFPSEDFYRCSYCKNESGSRSNG [G12S] | 3.15
51) DYFPSEDFYVCGYCKNESGSRSNG [R10V] | 3.04
52) DAFPSEDFYRCGYCKNESGSRSNG [Y2A] | 3.05
53) DYFPSEDFYRCGYCKNESGSRHNG [S22H] | 2.01
54) DYFPSEDFYRCGYCKNISGSRSNG [E17I] | 1.38
55) DYFPSEDFYRCGYCKNESGSRSRG [N23R] | 1.76
56) DYFTSEDFYRCGYCKNESGSRSNG [P4T] | 2.26
57) DYFPSEDFYRCGYCKNESGSMSNG [R21M] | 2.08
58) DYFPSEDFYRCGYCWNESGSRSNG [K15W] | 2.25
59) DYFPSRDFYRCGYCKNESGSRSNG [E6R] | 1.53
60) DYFPSEDFYRCGYCKNESGSRSNK [G24K] | 2.83
61) DYFPSEDFYRCAYCKNESGSRSNG [G12A] | 3.25
62) DEFPSEDFYRCGYCKNESGSRSNG [Y2E] | 2.63
63) DYFPSEDFYRCGYCKNESVSRSNG [G19V] | 2.14
64) DYFPSEDPYRCGYCKNESGSRSNG [F8P] | 3
65) DYFPSEDLYRCGYCKNESGSRSNG [F8L] | 2.19
66) DYFPSEDFYRCGYCKNASGSRSNG [E17A] | 1.74
67) DYFPSEDFNRCGYCKNESGSRSNG [Y9N] | 2.18
68) DYFPSEDFYRCGYCKNESGSRSNQ [G24Q] | 1.93
69) DYFPSEDFYRCGYCKNESGSLSNG [R21L] | 1.58
70) DVFPSEDFYRCGYCKNESGSRSNG [Y2V] | 2.18
71) DYFPSEDFYRCGYEKNESGSRSNG [C14E] | 4.6
72) DYFPSKDFYRCGYCKNESGSRSNG [E6K] | 1.35
73) DYFPSEDFYRCGECKNESGSRSNG [Y13E] | 4.41
74) DYFPSEDFYICGYCKNESGSRSNG [R10I] | 1.88
75) DYFCSEDFYRCGYCKNESGSRSNG [P4C] | 2.08
76) DYFPSEFFYRCGYCKNESGSRSNG [D7F] | 1.17
77) DYFPSEDFYRCGYGKNESGSRSNG [C14G] | 3.81
78) DYFPSEDFYRCGYKKNESGSRSNG [C14K] | 3.65
79) DYFPSEDFYMCGYCKNESGSRSNG [R10M] | 2.21
80) DYFPSEDFYCCGYCKNESGSRSNG [R10C] | 1.43
81) DYFPSEDFYSCGYCKNESGSRSNG [R10S] | 2.2
82) DYFPSEDFYRCGYCKNESGSRSKG [N23K] | 2.51
83) DYFPSEDFMRCGYCKNESGSRSNG [Y9M] | 2.69
84) DYFPSEDFYRCGYCKNEPGSRSNG [S18P] | 2.2
85) DYFPSEDFYRCEYCKNESGSRSNG [G12E] | 3.04
86) DYFPSEDFYRCGYCKNESGTRSNG [S20T] | 1.88
87) DYFPSEDFYRCGYCKNENGSRSNG [S18N] | 1.35
88) DYFPSEDFYRCGYCKNESGSRSDG [N23D] | 2.1
89) DYFPSEDFYRCGYCKNESGSRSNC [G24C] | 1.93
90) DYFPSEDFYRCGYCKAESGSRSNG [N16A] | 3.01
91) DYFWSEDFYRCGYCKNESGSRSNG [P4W] | 1.08
